Would you kindly list LC retention time for each of these compounds?
# assay-explanation: HILIC, Waters ACQUITY UPLC BEH Amide, 100 × 2.1 mm, 1.7 µm; A: water + 0.125% formic acid + 10 mM ammonium formate; B: 5% water + 95% acetonitrile + 0.125% formic acid + 10 mM ammonium formate; gradient (min/%B) 0/100 2/100 7.7/70 9.5/40 10.25/30 12.75/100 17/100
# measurement-conditions: stereoisomer not certain
Give the value in min but do not write min after it.

Given the entry O=C1OC(C(O)CO)C(O)=C1O (configuration not stated) , report its measured LC retention time.
1.44

Could you tell me which LC retention time is on file for NC(CC(=O)O)C(=O)O (configuration not stated) ?
9.33

Which LC retention time value belongs to Nc1[nH]c(=O)ncc1CO [5-Hydroxymethylcytosine] ?
6.9

So what does the record say about LC retention time for C[N+](C)(C)CC(O)CC(=O)[O-] (configuration not stated) ?
7.83

Looking for the measured LC retention time of `O=C1CN=C(c2ccccn2)c2cc(Br)ccc2N1` , can you help?
1.3

LC retention time for `CCC(=O)NS(=O)(=O)c1ccc(-c2c(-c3ccccc3)noc2C)cc1` ?
0.98

Fill in: LC retention time of `Cn1c(=O)c2[nH]cnc2n(C)c1=O` is ___
1.54

----------
# assay-explanation: HILIC, Waters ACQUITY UPLC BEH Amide, 100 × 2.1 mm, 1.7 µm; A: water + 0.125% formic acid + 10 mM ammonium formate; B: 5% water + 95% acetonitrile + 0.125% formic acid + 10 mM ammonium formate; gradient (min/%B) 0/100 2/100 7.7/70 9.5/40 10.25/30 12.75/100 17/100
# measurement-conditions: stereoisomer not certain
measurement-label: LC retention time
Returns: string containing the numeric result and its unit.

Please give the measured LC retention time for this compound: `Cc1ncc([N+](=O)[O-])n1CCO`
1.17 min

Quick one: LC retention time for CN1C2CCCC1CC(NC(=O)c1nn(C)c3ccccc13)C2 (stereo not given) ?
4.12 min

Sample CSCCC(NC(=O)CCC(N)C(=O)O)C(=O)O (stereo not given) — what was its LC retention time?
8.55 min

I'd like to know its LC retention time. The compound in question is OCC(O)C(O)CO (stereo not given)
1.56 min

Could you share which LC retention time value was measured for CCOC(=O)C1=C(COCCN)NC(C)=C(C(=O)OC)C1c1ccccc1Cl (stereo not given) ?
4.24 min

For the compound shown here, `COc1c2occc2cc2ccc(=O)oc12` , give the reported LC retention time.
1.04 min

What does the record list as LC retention time for COc1ccc2c3c1OC1C(=O)CCC4C(C2)N(C)CCC314 (stereo not given) [Hydrocodone] ?
3.8 min

Sample O=C(C=Cc1ccc(O)c(O)c1)OC1CC(O)(C(=O)O)CC(O)C1O (stereo not given) — what was its LC retention time?
6.68 min

Look up LC retention time for this compound: NC(CCC(=O)O)C(=O)NC(Cc1ccccc1)C(=O)O (stereo not given)
8.2 min

So what's the measured LC retention time for this one? Nc1ccn(C2OC(COP(=O)(O)O)C(O)C2O)c(=O)n1 (stereo not given) [Cytidine-5'-monophosphate]
9.48 min
